tested on: Kochia (Kochia scoparia); assay: Test A postemergence; assay type: in vivo; settings: Bassia scoparia, post-emergence, 240 h, Postemergence, 500 g ai/ha; visual injury, 0 to 100 scale (0 no effect, 100 complete control), approx. 10 d; read-out: Plant response rating, Kochia
assay.metric: pest or weed control at 500 g/ha (%)
Give bare numbers, in %.

Here are 6 compounds together with their reported answers.
>  <compound>
CN1C[C@H](c2ccc(C(F)F)cc2)[C@@H](C(=O)Nc2cccc(F)c2F)C1=O [Compound 1383]

>  <quantity.unit>
%

>  <pest or weed control at 500 g/ha>
70

$$$$
>  <compound>
CSc1ccccc1NC(=O)[C@H]1C(=O)N(C)C[C@@H]1c1ccc(C(F)(F)F)cc1 [Compound 1391]

>  <quantity.unit>
%

>  <pest or weed control at 500 g/ha>
80

$$$$
>  <compound>
C=CCOc1cccc(C2CN(C)C(=O)C2C(=O)Nc2ccccc2F)c1 (stereo not shown) [Compound 1329]

>  <quantity.unit>
%

>  <pest or weed control at 500 g/ha>
50

$$$$
>  <compound>
CN1C[C@H](c2cccc(C(C)(F)F)c2)[C@@H](C(=O)Nc2ccc(F)cc2F)C1=O [Compound 1319]

>  <quantity.unit>
%

>  <pest or weed control at 500 g/ha>
60

$$$$
>  <compound>
O=C1NC[C@H](c2ccc(OC(F)F)cc2)[C@H]1C(=O)Nc1ccc(F)cc1F [Compound 1325]

>  <quantity.unit>
%

>  <pest or weed control at 500 g/ha>
80

$$$$
>  <compound>
O=C1NC[C@H](c2cccc(C(F)(F)F)n2)[C@H]1C(=O)Nc1cccc(F)c1F [Compound 1385]

>  <quantity.unit>
%

>  <pest or weed control at 500 g/ha>
0

$$$$

Can you give me pest or weed control at 500 g/ha for all of these, one by one?
1. O=C1NC[C@H](c2cncc(C(F)(F)F)c2)[C@H]1C(=O)Nc1cccc(F)c1F [Compound 1394]
2. Cc1c(F)ccc([C@H]2CNC(=O)[C@@H]2C(=O)Nc2ccccc2F)c1F [Compound 1326]
3. CN1C[C@H](c2ccc(C(F)(F)F)nc2)[C@@H](C(=O)Nc2cccc(F)c2F)C1=O [Compound 1372]
4. CN1CC[C@H](c2cccc(C(F)(F)F)c2)[C@@H](C(=O)Nc2ccccc2F)C1=O [Compound 1331]

Result:
0
0
80
0
